In this section, each of the compounds is paired with its reported pKi.
- TARGET UNDER TEST: hNTS2 (Homo sapiens, UniProt O95665)
- Sequence (O95665 whole entry): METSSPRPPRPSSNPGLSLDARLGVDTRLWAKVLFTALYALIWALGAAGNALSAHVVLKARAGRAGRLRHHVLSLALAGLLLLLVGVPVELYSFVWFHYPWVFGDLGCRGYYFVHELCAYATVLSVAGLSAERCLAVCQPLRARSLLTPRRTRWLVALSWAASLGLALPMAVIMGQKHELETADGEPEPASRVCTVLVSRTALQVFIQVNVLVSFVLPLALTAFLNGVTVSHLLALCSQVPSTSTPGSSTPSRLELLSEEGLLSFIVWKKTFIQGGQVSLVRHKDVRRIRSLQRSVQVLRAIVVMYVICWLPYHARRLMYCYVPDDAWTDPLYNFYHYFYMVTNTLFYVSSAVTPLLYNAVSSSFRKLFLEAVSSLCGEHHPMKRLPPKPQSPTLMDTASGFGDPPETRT
- PROCEDURE DETAILS: Competitive radioligand binding assay, 125I-[Tyr3]-NT displacement, 1321N1 cell membranes
Numbered stars: 1 amine (or outer) side, 2 acyl side, 3 side chain; on linkers, the order of the positions; unused ones are H or OH. Square brackets hold non-standard residues; d marks the D form. Peptide text beside a SMILES is read from it. X1 = NCCCC[C@H](N)CN([C@@H](CCCCN)C(=O)[*:2])[*:1]; Ala(SiMe3) = C[Si](C)(C)C[C@H](N)C(=O)O
pKi is a log-scale quantity: -log10 of the concentration expressed in molar.

Please review the following examples before continuing.
- COMPOUND: "CC[C@H](C)[C@H](NC(=O)[C@H](CCCCN)NC(=O)[C@@H]1CCCN1C(=O)[C@H](CCCCN)NC(=O)[C@@H](N)CCCCN)C(=O)N[C@@H](C[Si](C)(C)C)C(=O)O [Compound 11, H-Lys-Lys-Pro-Lys-Ile-TMSAla-OH] (H-KKPKI[Ala(SiMe3)]-OH)"
  TARGET UNDER TEST: "hNTS2 (Homo sapiens, UniProt O95665)"
  VALUE MEASURED: 7.12
- COMPOUND: "CC[C@H](C)[C@H](NC(=O)[C@H](Cc1ccc(O)cc1)NC(=O)[C@@H]1CCCN1C(=O)[C@H](CCCCN)NC[C@@H](N)CCCCN)C(=O)N[C@@H](C[Si](C)(C)C)C(=O)O [Compound 4, H-Lysψ[CH2NH]Lys-Pro-Tyr-Ile-TMSAla-OH] (H-[X1]PYI[Ala(SiMe3)]-OH)"
  TARGET UNDER TEST: "hNTS2 (Homo sapiens, UniProt O95665)"
  VALUE MEASURED: 9.26
- COMPOUND: "CC[C@H](C)[C@H](NC(=O)[C@@H](Cc1c[nH]c2ccccc12)NC(=O)[C@@H]1CCCN1C(=O)[C@H](CCCCN)NC(=O)[C@@H](N)CCCCN)C(=O)N[C@@H](C[Si](C)(C)C)C(=O)O [Compound 13, H-Lys-Lys-Pro-D-Trp-Ile-TMSAla-OH] (H-KKP[dW]I[Ala(SiMe3)]-OH)"
  TARGET UNDER TEST: "hNTS2 (Homo sapiens, UniProt O95665)"
  VALUE MEASURED: 8.07

# context switch: different compound, same pKi
Input line: Give reported pKi for CC[C@H](C)[C@H](NC(=O)[C@H](Cc1ccc(O)cc1)NC(=O)C1C[Si](C)(C)CN1C(=O)[C@H](CCCCN)NC[C@@H](N)CCCCN)C(=O)N[C@@H](CC(C)C)C(=O)O (stereo partly drawn) [Compound 6, H-Lysψ[CH2NH]Lys-Sip-Tyr-Ile-Leu-OH] (hNTS2 (Homo sapiens, UniProt O95665))
Output line: 6.89
